tested on: RXF 393 renal; test: NCI tumour cell line growth inhibition, 48 h
Measured TGI accompanies every entry in the list below.
measured-parameter: TGI (µM)

1) Nc1cc(Br)c(-c2nnc(CCC(=O)c3nc4ccccc4[nH]3)o2)c(Br)c1 :: 58.7
2) CO[C@H]1Nc2c(ccc(C)c2O)C(=O)N2C=C(/C=C/C(N)=O)C[C@@H]12 :: 0.233
3) CCC1CN2CCc3cc(OC)c(OC)cc3C2CC1CC1c2cc(OC)c(OC)cc2CCN1C(=O)C1CCCN1 (configuration not stated) :: 73.8
4) O=C(O)c1cc(-c2ccc3c(O)c(O)ccc3c2)ccc1O :: 47.8
5) Cc1ccc([N+](=O)[O-])cc1N=NC(=O)NNc1cc([N+](=O)[O-])ccc1C :: 66.6
6) C(/C=C(\Nc1ccccc1)C12CC3CC(CC(C3)C1)C2)=Nc1ccccc1 :: 35.4
7) CSC(=Nc1ccccc1)N(c1ccccc1)c1nc(=[N+](C)C)ss1 :: 12.7
8) O=C1c2ccccc2-c2c1c1ccccc1c(=O)n2CCN1CCNCC1 :: 19.6
9) CCN(CC)CCCCCCNc1cccc2cc(Br)cnc12 :: 15.1
10) O=C(c1ccco1)c1c(C(F)(F)F)n([O-])c2ccc(C(F)(F)F)cc2[n+]1=O :: 0.512
11) CC12CCC3C(CCC4CC(OC(=O)Cc5ccc(N(CCCl)CCCl)cc5)CCC43C)C1CCC(=O)N2 (configuration not stated) :: 28
12) C=CC(=O)N1CN(C(=O)C=C)CN(C(=O)C=C)C1 :: 2.83
13) c1coc(-c2c3ccc(=[N+]4CCCCC4)cc-3oc3cc(N4CCCCC4)ccc23)c1 :: 0.228

Cited source: PubChem BioAssay (NCI)
